- System: biofilm-producing Staphylococcus epidermidis strains
- assay remarks: Inhibition of biofilm formation (MBIC, resazurin)
- Assay type: cell-based
- run conditions: clinical strain 39 (Table S4)
result type: MBIC (µg/mL)

# molecule, measured value
rows = [
    ("O=S(=O)(NC1CCN(CCC(Oc2ccc(C(F)(F)F)cc2)c2cccs2)CC1)c1cccc(Cl)c1 (stereo not shown) [Compound 14]", 15.6),
    ("O=C(Nc1cccc(Cl)c1)NC1CCN(CCC(Oc2ccc(C(F)(F)F)cc2)c2cccs2)CC1 (stereo not shown) [Compound 25]", 1.6),
    ("O=S(=O)(NC1CCN(CCC(Oc2ccc(C(F)(F)F)cc2)c2ccccc2)CC1)c1cccc(Cl)c1 (stereo not shown) [Compound 12]", 31.25),
    ("CC(=O)NC[C@H]1CN(c2ccc(N3CCOCC3)c(F)c2)C(=O)O1 [linezolid, reference compound]", 6.25),
]

// provenance: paper PMC10945555
